studySystem: Inadl_8, Q8NI35
Sequence (Q8NI35 1425-1530): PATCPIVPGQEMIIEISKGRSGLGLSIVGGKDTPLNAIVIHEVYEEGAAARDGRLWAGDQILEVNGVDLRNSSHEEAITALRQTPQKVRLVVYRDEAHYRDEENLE
testSummary: holdup assay
Parameters: key: below the threshold = too weak to quantify, mostly under pKd 3.1 to 4
testSettings: plain residues with an end cap or a label only (N-terminal biotin on a linker: ado-ado)
parameter: pKd

binder	valueObserved
LPHGHSTTRV [NLGN4X, Q8N0W4]	4.33
VYPNAKVELV [PDLIM4_iso2, P50479;P50479-1]	below the threshold
AKPSRISTVV [IQSEC2, Q5JU85]	3.89
NLSIEKETKL [ASNSD1, Q9NWL6]	below the threshold
SKENVQETQI [LRRC4B, Q9NT99]	below the threshold
SSALYGESDL [ACTN2, P35609]	below the threshold
